assay name: qHTS profiling for inhibitors of Plasmodium falciparum proliferation (AID 504749);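 also: 0% = DMSO vehicle and full inhibition = artemisinin control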
assay setup: P. falciparum in erythrocytes, SYBR Green DNA, 72 h; at 12.8 µM (top of the series); parasite line B
Results filed as inconclusive are left out.
Documented activity, negative = inhibition across a set of molecules
Please state the figure in %; there is no need to write the unit.

O=C(NC[C@@H](O)CO)c1c(I)c(C(=O)NC[C@@H](O)CO)c(I)c(N(CCO)C(=O)CO)c1I ... 8.28
CC1(C)S[C@@H]2[C@H](NC(=O)[C@@H](N)c3ccccc3)C(=O)N2[C@H]1C(=O)O[C@H]1OC(=O)c2ccccc21 ... 6.7

Problem: Entry "C=CCN1C(=CCO)[C@H]2C[C@H]3[C@@H]1CC[C@@]31c3ccccc3N3C=C4[C@@H]5N(/C=C/2[C@H]31)c1ccccc1[C@]51CC[C@H]2[C@H]1C[C@@H]4/C(=C/CO)N2CC=C" has what activity, negative = inhibition?
Solution: 0.223
